experiment: Pharmacokinetic test, oral or intravenous administration; format: in vivo; details: mouse, blood; oral administration, 20 mg/kg, mice
assay.metric: half-life (h)
State just the number; it will be interpreted in h.

Sample CN(c1ncnc2[nH]ccc12)[C@@H]1CCN(C(=O)CC#N)C1.Cl — what was its half-life?
2.78

---

Assay: Pharmacokinetic test, oral or intravenous administration
Assay type: in vivo
Conditions: mouse, blood; intravenous injection, 20 mg/kg, mice
Method: A dose of the compound was about 20 mg/kg, which was orally or intraveneously administered one time, followed by blood collection from the jugular veins of three mice at each of blood sampling intervals, i.e., 0, 0.25 (15 min), 0.5 (30 min), 1, 2, 4, 6, 12, and 24 hours from the administration, and measuring a drug concentration.
assay.metric: Cmax (ng/mL)
State just the number; it will be interpreted in ng/mL.

Sample CN(c1ncnc2[nH]ccc12)[C@@H]1CCN(C(=O)CC#N)C1.Cl [Example 51] — what was its Cmax?
15500

Origin of values: patent US10407430B2
